Target: T1, negative control protein with the same mFc tag (hLDLR-mFc) (human; mouse, UniProt P01130 22-788, limits assumed)
T1 construct: also called Irrelevant control; not shown: mouse IgG2a Fc tag (same mFc tag as hANGPTL8-mFc)
T1 sequence (P01130 22-788 limits assumed): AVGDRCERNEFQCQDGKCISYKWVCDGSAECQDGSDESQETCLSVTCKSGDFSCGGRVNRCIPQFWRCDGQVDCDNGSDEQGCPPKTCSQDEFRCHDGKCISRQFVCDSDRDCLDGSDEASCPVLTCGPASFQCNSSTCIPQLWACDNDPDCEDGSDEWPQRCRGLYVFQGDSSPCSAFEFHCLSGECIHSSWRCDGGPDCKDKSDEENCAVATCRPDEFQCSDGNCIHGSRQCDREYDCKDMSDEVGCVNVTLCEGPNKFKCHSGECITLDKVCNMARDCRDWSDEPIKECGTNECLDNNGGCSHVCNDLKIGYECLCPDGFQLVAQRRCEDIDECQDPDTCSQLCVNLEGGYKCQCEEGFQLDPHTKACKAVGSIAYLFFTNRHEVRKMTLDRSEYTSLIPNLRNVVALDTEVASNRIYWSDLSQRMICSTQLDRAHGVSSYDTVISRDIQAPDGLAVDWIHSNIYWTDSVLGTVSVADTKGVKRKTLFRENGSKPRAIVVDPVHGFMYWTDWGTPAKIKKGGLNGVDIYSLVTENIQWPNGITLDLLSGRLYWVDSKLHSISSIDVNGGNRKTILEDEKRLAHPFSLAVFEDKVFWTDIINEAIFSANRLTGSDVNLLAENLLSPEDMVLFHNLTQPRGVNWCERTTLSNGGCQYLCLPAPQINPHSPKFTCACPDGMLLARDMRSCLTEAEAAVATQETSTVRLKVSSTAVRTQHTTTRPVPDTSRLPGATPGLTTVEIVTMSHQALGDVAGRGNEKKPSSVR
Experiment: BLI Octet, captured antigen, 100 nM mAb, 25C
TEST READOUT: mAb Binding Response (nm)

* H4H15343P (antibody, human IgG4, V domains shown, H4H prefix: human IgG4 Fc) VH: QVQLVESGGGVVQPGRSLRLSCAASGFTFSSYGMHWVRQAPGKGLEWVAVISYAGSNKYYADSVKGRFTISRDNSKNTLYLQMNGLRAEDTAVYYCAKDPYGDYEGVLDYWGQGTLVTVSS VL: DIQMTQSPSSLSASVGDRVTITCQASQDISNYLNWYQQKPGKAPKLLIYDASNLETGVPSRFSGSGSGTDFTFTISSLQPEDIATYYCQQYDHLPITFGQGTRLEIK | -0.01
* H4H15319P (antibody, human IgG4, V domains shown, H4H prefix: human IgG4 Fc) VH: EVQLVESGGGVVRPGGSLRLSCAASGFTVDDYDMSWVRQTPGKGLEWISGINWNGGNTGYADSVKGRFIISRDSAKNSLFLQMNSLRAEDTALYHCWGAIGAFDIWGQGTMVTVSS VL: DIVMTQSPLSSPVTLGQPASISCRSSQSLVHSDGGTYLSWLQQRPGQPPRLLIYKIFNRFSGVPDRFSGSGAGTDFTLRISRVEAEDVGVYYCMQTTQFPLTFGGGTKVEIK | -0.01
